Target chain: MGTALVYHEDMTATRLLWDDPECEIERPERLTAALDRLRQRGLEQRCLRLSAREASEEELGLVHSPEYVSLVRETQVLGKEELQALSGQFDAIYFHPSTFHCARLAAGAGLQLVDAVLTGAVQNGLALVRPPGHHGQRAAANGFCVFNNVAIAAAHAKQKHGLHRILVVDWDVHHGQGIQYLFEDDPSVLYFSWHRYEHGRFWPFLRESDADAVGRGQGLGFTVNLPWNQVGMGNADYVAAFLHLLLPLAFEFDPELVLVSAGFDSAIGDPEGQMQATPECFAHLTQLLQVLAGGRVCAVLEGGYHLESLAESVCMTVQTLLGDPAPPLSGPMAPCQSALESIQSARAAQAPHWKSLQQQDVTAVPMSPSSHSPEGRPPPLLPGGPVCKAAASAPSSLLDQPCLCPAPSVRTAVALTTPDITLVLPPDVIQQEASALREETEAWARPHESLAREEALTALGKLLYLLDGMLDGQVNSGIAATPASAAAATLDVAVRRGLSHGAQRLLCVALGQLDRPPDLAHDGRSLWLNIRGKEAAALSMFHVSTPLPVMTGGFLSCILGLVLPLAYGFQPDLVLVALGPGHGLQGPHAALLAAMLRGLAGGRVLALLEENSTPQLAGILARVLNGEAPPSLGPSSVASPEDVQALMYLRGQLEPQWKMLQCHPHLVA
// boundary case: IC50 equal to 6000 nM maps to Condition not met; strictly smaller maps to Condition met

Determine whether this compound shows IC50 lower than 6000 nM (ties excluded): O=C(NO)c1cc(F)c(Cn2nnc(-c3ccco3)n2)c(F)c1 [comp. 19]
Condition met

Determine whether this compound shows IC50 lower than 6000 nM (ties excluded): CN(C)c1cccc(-c2nnc(Sc3c(F)cc(C(=O)NO)cc3F)n2C)c1 [comp. 80]
Condition met

Determine whether this compound shows IC50 lower than 6000 nM (ties excluded): O=C(NO)c1cc(F)c(Cn2nnnc2-c2cccs2)c(F)c1 [comp. 15]
Condition not met

Determine whether this compound shows IC50 lower than 6000 nM (ties excluded): O=C(NO)c1cc(F)c(Cn2nnc(-c3ccccn3)n2)c(F)c1 [comp. 6]
Condition not met

Determine whether this compound shows IC50 lower than 6000 nM (ties excluded): O=C(NO)c1cc(F)c(Cn2nnnc2-c2ccccn2)c(F)c1 [comp. 13]
Condition met

Determine whether this compound shows IC50 lower than 6000 nM (ties excluded): CCN(CC)S(=O)(=O)c1cccc(-c2nnc(Sc3ccc(C(=O)NO)cc3)n2N)c1 [comp. 61]
Condition met

Determine whether this compound shows IC50 lower than 6000 nM (ties excluded): O=C(NO)c1ccc(Cc2nnc(-c3ccc(F)cc3F)o2)cc1 [comp. 58]
Condition met
